Test system: NCI-H23
Test: NCI tumour cell line growth inhibition, 48 h
Activity calls are given as the source filed them. Cut-off read from the data, not from the text of the source: active = GI50 up to about 1.1 µM and inactive = higher.
// GI50 lookup, one value per entry

Example cases with answers are listed next.
Cc1c(CCN2CCOCC2)c(N2CCOCC2)n2c(nc3ccccc32)c1C#N; > 10 µM (inactive)
O=C1CCc2c(sc3ncnc(Nc4cccc(Br)c4)c23)C1; 3.01 µM (inactive)
CC1(C(=O)Nc2ccc3cc4ccccc4cc3c2)CC2(C)CC(C)(C1)C(O)NC2=O (centres undefined); > 100 µM (inactive)
O=C=NCCCCCCN1C(=O)N2C(c3ccccc3)N(CCCCCCN=C=O)C(=O)N2C1c1ccccc1 (centres undefined); > 100 µM (inactive)
COc1cc2c(cc1C)[n+]([O-])c(C)c(C(=O)C/C(=N/NC(=O)C[N+](C)(C)C)C(=O)Nc1cccc(Cl)c1C)[n+]2[O-]; > 100 µM (inactive)

Specify reported GI50 for the compound shown: C=C(C)[C@]12CC(C)C34OC(/C=C\C=C\CCCCCCCCC)(O[C@@H]1[C@@H]3[C@@H]1O[C@]1(CO)[C@@H](O)[C@]1(O)C(=O)C(C)=C[C@@H]41)O2 (some centres undefined)
14.4 µM (inactive)

Specify reported GI50 for the compound shown: Cn1c(=O)c(C#N)c(O)c2cc3ccccc3nc21
> 100 µM (inactive)

Specify reported GI50 for the compound shown: C[N+](C)(C)CCc1ccccc1
> 100 µM (inactive)

Specify reported GI50 for the compound shown: COc1ccc(C/C(=N/O)C(=O)NCCc2cc(Br)c(OCCCN(C)C)c(Br)c2)cc1Br
> 10 µM (inactive)

###

System: TK-10
Assay: NCI tumour cell line growth inhibition, 48 h
Calls of active or inactive are those of the source. Cut-off read from the data, not from the text of the source: active = GI50 up to about 1.1 µM and inactive = higher.
// GI50 lookup, one value per entry

Example cases with answers are listed next.
COC(=O)[C@@H]1C=C[C@H](OC2OC(COC(C)=O)C(OC(C)=O)C(OC(C)=O)C2OC(C)=O)n2c(=O)n(-c3ccccc3)c(=O)n21 (stereo not given in full); 1.79 µM (inactive)
COc1ccc(C=C2C(=O)NC(=S)NC2=O)c2ccccc12; 7.6 µM (inactive)
CC[C@@H](/C=C\CCC(=O)C[C@H](O)CCC=C(C)C)O[Si](C(C)C)(C(C)C)C(C)C; > 100 µM (inactive)
CCCNC(=S)N/C=C1\C(=O)Nc2ccccc2C1=O; > 100 µM (inactive)
CC[C@]1(O)C(=O)OCc2c1cc1n(c2=O)Cc2cc3c(N)cccc3nc2-1; > 100 µM (inactive)

Specify reported GI50 for the compound shown: Cc1cc2[nH]c3c(C#N)c4c(c(=O)n3c2cc1C)CCCC4
> 100 µM (inactive)

Specify reported GI50 for the compound shown: OC(C1CO1)C(O)C1CO1 (stereo not given)
86.3 µM (inactive)

Specify reported GI50 for the compound shown: N#Cc1c2c(c(Nc3cccc(C(F)(F)F)c3)n3c1nc1ccccc13)CCCC2
16.3 µM (inactive)

Specify reported GI50 for the compound shown: N#Cc1c(-c2ccccc2)c(-c2ccccc2)cc2c(=O)c3ccc(Cl)cc3[nH]c12
> 100 µM (inactive)

Specify reported GI50 for the compound shown: O=C1CC[C@H](NC(=O)Cc2ccccc2)C(=O)N1 [ANTINEOPLASTON A10]
> 1250 µM (inactive)

###

System: SK-MEL-2
Test: NCI tumour cell line growth inhibition, 48 h
The source made the active and inactive calls. No stated cut-off is given here; in the data, active = GI50 up to about 1.1 µM and inactive = higher. Square brackets hold non-standard residues; d marks the D form. Peptide text beside a SMILES is read from it. * marks the point of attachment. Boc = CC(C)(C)OC(=O)*; Lac = C[CH](O)C(=O)O; OBn = c1ccc(CO*)cc1
measurement_name: GI50

O=C(c1ccco1)N1CCCN(C(=O)c2ccco2)C1=S; 46.5 µM (inactive)

Specify reported GI50 for the compound shown: CC(OC(=O)C(Cc1ccccc1)NC(=O)C(Cc1ccccc1)NC(=O)OC(C)(C)C)C(=O)OCc1ccccc1 (stereo not drawn) (Boc-Phe-Phe-[Lac]-OBn; configuration not given here)
> 100 µM (inactive)

Specify reported GI50 for the compound shown: CCNc1c(C(=O)N(CC)CC)c(=O)[nH]c2ncccc12
> 100 µM (inactive)

Specify reported GI50 for the compound shown: O=C1c2cc([N+](=O)[O-])sc2C(=O)c2c([N+](=O)[O-])csc21
1.53 µM (inactive)

Specify reported GI50 for the compound shown: COc1ccccc1/C=C1\CCC(CCN(C)C)(C2=CCCC2)C1=O (stereo unspecified)
19.5 µM (inactive)

Specify reported GI50 for the compound shown: CC(=N\c1ccncc1)/C(C)=N/c1ccncc1
20.7 µM (inactive)

Specify reported GI50 for the compound shown: COc1ccc2c(c1)O[C@@H]1c3ccc(OC)cc3OC[C@H]21
23 µM (inactive)

Specify reported GI50 for the compound shown: COc1c(-c2ccccc2)oc2c(CP(=O)(OC)OC)cccc2c1=O
> 100 µM (inactive)

Specify reported GI50 for the compound shown: CC(=O)N1N(c2ccc([N+](=O)[O-])cc2)C(=O)C1(C)C
19.1 µM (inactive)

Specify reported GI50 for the compound shown: Cc1cc(C)c(-n2c(-c3ccccc3)cs/c2=N\N=C2C=C(C(C)(C)C)C(=O)C(C(C)(C)C)=C2)c(C)c1
> 100 µM (inactive)

Specify reported GI50 for the compound shown: NNC(=O)CC(=O)Nc1ccccc1Cl
> 100 µM (inactive)

###

Tested on: TK-10
Assay: NCI tumour cell line growth inhibition, 48 h
Active and inactive are the calls of the source. Cut-off read from the data, not from the text of the source: active = GI50 up to about 1.1 µM and inactive = higher.
Please reply with one of these outcomes: T for active, F for inactive

# count of solved cases: 2
COCCOC(=O)NCn1cc(-c2ccccc2)nn1; F
CCN(CC)c1ccc(/N=N/c2ccc(-c3nc4ccc[n+](C)c4o3)cc2)cc1; F

Hello, I am checking results. What call was entered for COc1ccc2oc(C(=O)N3CC(CCl)c4ccc(N)cc43)cc2c1 (configuration not stated) ?
F

Hello, I am checking results. What call was entered for COC(=O)c1ccc(C=C(C#N)C#N)cc1 ?
F

Hello, I am checking results. What call was entered for COC(=O)[C@@H](Cc1ccccc1)NNC(=O)OC(C)(C)C ?
F

Hello, I am checking results. What call was entered for CC[N+](C)(CC)CCN1C(=O)c2ccccc2S1(=O)=O ?
F

Hello, I am checking results. What call was entered for CCON=C1C(C)(C)C(C)(C)C(C)(C)C1(C)C ?
F

Hello, I am checking results. What call was entered for CC1=C(Nc2c(C)cc(O)cc2O)C(=O)C=c2oc3c(c21)C(C)=C(Nc1c(C)cc(O)cc1O)C(=O)C=3 ?
F

Hello, I am checking results. What call was entered for O=C1CSC(c2cccc(Cl)c2)N1c1c(O)c(Cl)cc(Br)c1Cl (configuration not stated) ?
F

Hello, I am checking results. What call was entered for Cn1c(=S)c2nc(SCCN3CCCC3)[nH]c2n(C)c1=O ?
F

Hello, I am checking results. What call was entered for O=c1[nH]c2[nH]c(-c3ccc(Br)cc3)cc2c2ccccc12 ?
F

Hello, I am checking results. What call was entered for N#Cc1c2ccc([N+](=O)[O-])cc2c(=O)n2c1sc1ccc(C(F)(F)F)cc12 ?
F

Hello, I am checking results. What call was entered for COC(=O)/C(=N/NC(N)=O)C(C(=O)C(=O)Nc1ccc(C)cc1)c1nc2ccc(C(=O)c3ccccc3)cc2nc1O (configuration not stated) ?
F

Hello, I am checking results. What call was entered for Nc1ccc2ccc(N3CCNCC3)nc2n1 ?
F

Hello, I am checking results. What call was entered for COC(=O)C1(C#N)C(C)(C)N=C(c2ccccc2)C12CCCCC2 (configuration not stated) ?
F

Hello, I am checking results. What call was entered for Cc1c2cc[n+](C)cc2c(C)c2c1[nH]c1ccc(O)c(OCC(F)(F)F)c12 ?
F

Hello, I am checking results. What call was entered for O=C(c1ccc(Cl)cc1)N(C(=S)OCCOc1ccccc1)c1ccccc1 ?
F

Hello, I am checking results. What call was entered for CN(c1ccccc1Cl)S(=O)(=O)c1ccccc1 ?
F

###

System: UACC-257
Test: NCI tumour cell line growth inhibition, 48 h
Activity calls are given as the source filed them. Cut-off read from the data, not from the text of the source: active = GI50 up to about 1.1 µM and inactive = higher.
Please reply with one of these outcomes: True for active, False for inactive

# count of solved cases: 5
COc1cccc2c1C1=CC(=O)CCC1C(C)(C)O2 (stereo not given); False
CC(C)(C)NCCC(O)c1cc(C(F)(F)F)nc2c(C(F)(F)F)cccc12 (stereo not given); False
O=C(CCCCCCCCC(=O)NN1C(=O)/C(=C\c2ccc(O)c(O)c2)SC1c1ccc(Cl)cc1)NN1C(=O)/C(=C\c2ccc(O)c(O)c2)SC1c1ccc(Cl)cc1 (stereo not given); False
Cc1[nH]c2ncn(Nc3ccccc3)c(=N)c2c1Cc1ccccc1; True
Cc1ccc(S(=O)(=O)N/N=C2\CCCCCCCCCCC2CN(C)C)cc1 (stereo not given); False

Hello, I am checking results. What call was entered for O=C(/C=C1\NC(=O)c2ccccc2N1)c1ccncc1 ?
False

Hello, I am checking results. What call was entered for COc1ccc2nc(NC(=O)C(=O)CC(=O)c3ccc([N+](=O)[O-])cc3)sc2c1 ?
False

Hello, I am checking results. What call was entered for O=C1[C@@H]2C3c4ccccc4C([C@@H]2C(=O)N1c1ccccc1)S3(=O)=O ?
False

Hello, I am checking results. What call was entered for Cc1cc2[nH]c3c(C#N)c4c(c(=O)n3c2cc1C)CCCC4 ?
False

Hello, I am checking results. What call was entered for Cn1cnc([N+](=O)[O-])c1[Se]c1nc(N)nc2c1ncn2C1OC(CO)C(O)C1O (stereo not given) ?
False
